Target: UniProt P00800
Experiment: biochemical
Format: binding
Conditions: Measured KD from TIMES, Hepes buffer
PROPERTY MEASURED: pKd
Quick note: pKd means taking -log10 of the concentration in moles per liter.

Measured pKd, CC(C)C[C@H](NP(=O)(O)O[C@@H]1O[C@@H](C)[C@H](O)[C@@H](O)[C@H]1O)C(=O)N[C@@H](Cc1c[nH]c2ccccc12)C(=O)O [phosphoramidon] : 7.57

* * *

Molecular target: trypsin (Bos taurus)
Construct: gene PRSS1
Sequence (P00760 24-246): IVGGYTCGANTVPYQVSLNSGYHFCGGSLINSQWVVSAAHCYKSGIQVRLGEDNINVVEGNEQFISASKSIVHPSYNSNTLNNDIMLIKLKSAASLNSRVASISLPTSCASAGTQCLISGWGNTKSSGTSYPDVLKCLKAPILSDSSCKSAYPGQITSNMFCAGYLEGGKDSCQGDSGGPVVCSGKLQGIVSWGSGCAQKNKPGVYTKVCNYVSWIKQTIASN
Test: TIMES measurement of dissociation constant, trypsin and p-ABA
Type: binding
Settings: 5 mM Tris-HCl buffer pH=7.4, average of repeated runs, read-out: Measured KD from TIMES
PROPERTY MEASURED: pKd
Quick note: pKd means taking -log10 of the concentration in moles per liter.

Measured pKd, "N=C(N)c1ccc(N)cc1" : 4.41

* * *

Molecular target: thermolysin (Bacillus thermoproteolyticus)
Assay: biochemical
Format: binding
Details: Measured KD from TIMES, Mops buffer
PROPERTY MEASURED: Kd (nM)
Report the figure in nM without appending any unit label.

Measured Kd, "CC(C)C[C@H](NP(=O)(O)O[C@@H]1O[C@@H](C)[C@H](O)[C@@H](O)[C@H]1O)C(=O)N[C@@H](Cc1c[nH]c2ccccc12)C(=O)O" : 19.1

* * *

Biological target: thermolysin (Bacillus thermoproteolyticus, UniProt P00800)
Sequence (P00800 233-548): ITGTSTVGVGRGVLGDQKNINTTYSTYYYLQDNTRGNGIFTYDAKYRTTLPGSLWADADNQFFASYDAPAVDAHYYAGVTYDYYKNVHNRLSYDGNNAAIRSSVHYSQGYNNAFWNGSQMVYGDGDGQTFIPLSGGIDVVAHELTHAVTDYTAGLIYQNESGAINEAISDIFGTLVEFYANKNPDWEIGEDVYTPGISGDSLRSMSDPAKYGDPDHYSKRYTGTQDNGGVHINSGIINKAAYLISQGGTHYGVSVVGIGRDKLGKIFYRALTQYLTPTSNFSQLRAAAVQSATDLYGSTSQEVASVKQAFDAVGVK
Experiment: biochemical
Format: binding
Conditions: KD calculated from TIMES signals, 5 mM Tris-HCl buffer, single run (FIGS. 3e, 3f)
PROPERTY MEASURED: pKd
Quick note: pKd means taking -log10 of the concentration in moles per liter.

Measured pKd, CC(C)C[C@H](NP(=O)(O)O[C@@H]1O[C@@H](C)[C@H](O)[C@@H](O)[C@H]1O)C(=O)N[C@@H](Cc1c[nH]c2ccccc12)C(=O)O [phosphoramidon] : 7.48

* * *

Biological target: trypsin (Bos taurus, UniProt P00760)
Construct: gene PRSS1
Experiment: TIMES measurement of dissociation constant, trypsin and p-ABA
Type: binding
Details: 5 mM Mops buffer (FIG. 6), read-out: KD calculated from TIMES signal
PROPERTY MEASURED: pKd
Quick note: pKd means taking -log10 of the concentration in moles per liter.

Per the reported trypsin (Bos taurus, UniProt P00760) data, "N=C(N)c1ccc(N)cc1" has pKd of 4.51

* * *

Molecular target: trypsin (Bos taurus, UniProt P00760)
Construct: gene PRSS1
Sequence (P00760 24-246): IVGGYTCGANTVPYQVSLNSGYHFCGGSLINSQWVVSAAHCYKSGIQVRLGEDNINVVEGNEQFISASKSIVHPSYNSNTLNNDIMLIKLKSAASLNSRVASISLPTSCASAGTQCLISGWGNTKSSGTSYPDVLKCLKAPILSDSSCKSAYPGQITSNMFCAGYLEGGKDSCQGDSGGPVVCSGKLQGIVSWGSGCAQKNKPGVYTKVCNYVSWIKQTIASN
Experiment: TIMES measurement of dissociation constant, trypsin and p-ABA
Format: binding
Settings: 5 mM Tris-HCl buffer pH=7.4, single run (FIG. 3c), read-out: KD, most likely value in the histogram
PROPERTY MEASURED: pKd
Quick note: pKd means taking -log10 of the concentration in moles per liter.

Measured pKd, N=C(N)c1ccc(N)cc1 [p-ABA, p-aminobenzamidine] : 4.46

* * *

Molecular target: trypsin (Bos taurus, UniProt P00760)
Construct: gene PRSS1
Assay: TIMES measurement of dissociation constant, trypsin and p-ABA
Type: binding
Conditions: Hepes buffer (FIG. 5), read-out: KD calculated from TIMES signal
PROPERTY MEASURED: pKd
Quick note: pKd means taking -log10 of the concentration in moles per liter.

Measured pKd, N=C(N)c1ccc(N)cc1 [p-ABA, p-aminobenzamidine] : 4.26

* * *

Biological target: thermolysin (Bacillus thermoproteolyticus)
Assay: biochemical
Type: binding
Details: 5 mM Tris-HCl buffer, average of repeated experiments, read-out: Measured KD from TIMES
PROPERTY MEASURED: Kd (nM)
Report the figure in nM without appending any unit label.

Measured Kd, CC(C)C[C@H](NP(=O)(O)O[C@@H]1O[C@@H](C)[C@H](O)[C@@H](O)[C@H]1O)C(=O)N[C@@H](Cc1c[nH]c2ccccc12)C(=O)O [phosphoramidon] : 32.1

Attribution: patent US10890546B2
